AC50 for assorted compounds
- assayed_target: FAD-linked sulfhydryl oxidase ALR (Homo sapiens)
- Sequence (P55789 whole entry): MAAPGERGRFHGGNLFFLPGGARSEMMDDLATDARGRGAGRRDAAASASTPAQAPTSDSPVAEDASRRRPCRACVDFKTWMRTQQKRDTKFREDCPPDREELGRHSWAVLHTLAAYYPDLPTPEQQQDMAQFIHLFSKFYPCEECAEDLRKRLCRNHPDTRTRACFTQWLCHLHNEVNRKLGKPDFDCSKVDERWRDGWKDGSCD
- protocol: inhibitors of human ALR sulfhydryl oxidase, dose response, biochemical, H2O2 detection, luminescence, cherry-pick (AID 493248)
The source made the active and inactive calls.

As a guide, the following entries are already answered.
> print(dat)
                                   compound                            assayed.target          obs.value
1  N#Cc1cnn(-c2ccccc2)c1NC(=O)CN1CCN(c2ccccc2)CC1  FAD-linked sulfhydryl oxidase ALR (Homo sapiens)  13400 nM (active)
2  Cc1cc(NS(=O)(=O)c2ccc(Nc3nc(-c4ccc(O)cc4)cs3)cc2)no1  FAD-linked sulfhydryl oxidase ALR (Homo sapiens)    108 nM (active)
3  O=C(NNC(=O)c1ccccc1O)c1ccc(Cl)c(S(=O)(=O)N2CCCCC2)c1  FAD-linked sulfhydryl oxidase ALR (Homo sapiens)  56400 nM (active)
4          Cc1ccc2[nH]c(CCc3ccc(N)cc3)nc2c1  FAD-linked sulfhydryl oxidase ALR (Homo sapiens)     18 nM (active)
5   O=C(c1cccc(F)c1)N1CCC(c2nc3ccccc3s2)CC1  FAD-linked sulfhydryl oxidase ALR (Homo sapiens)    433 nM (active)

Input: Consider the compound O=C1OC(Nc2ccc3c(c2)OCO3)c2ccccc21 (configuration not stated) and give its measured AC50.
Output: 577 nM (active)

----------
AC50 for assorted compounds
- assayed_target: Dual specificity tyrosine-phosphorylation-regulated kinase 1A (Rattus norvegicus)
- Type: biochemical, Homo sapiens
Calls of active or inactive are those of the source.

As a guide, the following entries are already answered.
> print(dat)
                                 smiles.str          obs.value
1  O=C(O)COc1ccc(/C=C/c2ccc3cccc([N+](=O)[O-])c3n2)cc1    6.6 µM (active)
2     COc1ccccc1/N=c1\oc2cc(O)ccc2cc1C(N)=O  0.139 µM (active)
3  O=c1c2c(O)cc(O)cc2oc2ccc(O)c(O[C@@H]3O[C@H](CO)[C@@H](O)[C@H](O)[C@H]3O[C@H]3O[C@H](CO)[C@@H](O)[C@H](O)[C@H]3O)c12   3.69 µM (active)

Input: Enter reported AC50 observed with Dual specificity tyrosine-phosphorylation-regulated kinase 1A (Rattus norvegicus) for `Cc1cc(NCCCn2ccnc2)n2ncc(-c3ccc(Cl)cc3)c2n1`
Output: 2.85 µM (active)

Input: Let us now turn to `N#C/C(=C/c1ccc(O)c([N+](=O)[O-])c1)C(=O)Nc1ccccc1`
Output: 1.11 µM (active)

----------
EC50 for assorted compounds
- assayed_target: Voltage-dependent T-type calcium channel subunit alpha-1H (Homo sapiens, UniProt O95180);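 further: channel activity triggered by adding a high calcium stimulation buffer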
- Sequence (O95180 whole entry): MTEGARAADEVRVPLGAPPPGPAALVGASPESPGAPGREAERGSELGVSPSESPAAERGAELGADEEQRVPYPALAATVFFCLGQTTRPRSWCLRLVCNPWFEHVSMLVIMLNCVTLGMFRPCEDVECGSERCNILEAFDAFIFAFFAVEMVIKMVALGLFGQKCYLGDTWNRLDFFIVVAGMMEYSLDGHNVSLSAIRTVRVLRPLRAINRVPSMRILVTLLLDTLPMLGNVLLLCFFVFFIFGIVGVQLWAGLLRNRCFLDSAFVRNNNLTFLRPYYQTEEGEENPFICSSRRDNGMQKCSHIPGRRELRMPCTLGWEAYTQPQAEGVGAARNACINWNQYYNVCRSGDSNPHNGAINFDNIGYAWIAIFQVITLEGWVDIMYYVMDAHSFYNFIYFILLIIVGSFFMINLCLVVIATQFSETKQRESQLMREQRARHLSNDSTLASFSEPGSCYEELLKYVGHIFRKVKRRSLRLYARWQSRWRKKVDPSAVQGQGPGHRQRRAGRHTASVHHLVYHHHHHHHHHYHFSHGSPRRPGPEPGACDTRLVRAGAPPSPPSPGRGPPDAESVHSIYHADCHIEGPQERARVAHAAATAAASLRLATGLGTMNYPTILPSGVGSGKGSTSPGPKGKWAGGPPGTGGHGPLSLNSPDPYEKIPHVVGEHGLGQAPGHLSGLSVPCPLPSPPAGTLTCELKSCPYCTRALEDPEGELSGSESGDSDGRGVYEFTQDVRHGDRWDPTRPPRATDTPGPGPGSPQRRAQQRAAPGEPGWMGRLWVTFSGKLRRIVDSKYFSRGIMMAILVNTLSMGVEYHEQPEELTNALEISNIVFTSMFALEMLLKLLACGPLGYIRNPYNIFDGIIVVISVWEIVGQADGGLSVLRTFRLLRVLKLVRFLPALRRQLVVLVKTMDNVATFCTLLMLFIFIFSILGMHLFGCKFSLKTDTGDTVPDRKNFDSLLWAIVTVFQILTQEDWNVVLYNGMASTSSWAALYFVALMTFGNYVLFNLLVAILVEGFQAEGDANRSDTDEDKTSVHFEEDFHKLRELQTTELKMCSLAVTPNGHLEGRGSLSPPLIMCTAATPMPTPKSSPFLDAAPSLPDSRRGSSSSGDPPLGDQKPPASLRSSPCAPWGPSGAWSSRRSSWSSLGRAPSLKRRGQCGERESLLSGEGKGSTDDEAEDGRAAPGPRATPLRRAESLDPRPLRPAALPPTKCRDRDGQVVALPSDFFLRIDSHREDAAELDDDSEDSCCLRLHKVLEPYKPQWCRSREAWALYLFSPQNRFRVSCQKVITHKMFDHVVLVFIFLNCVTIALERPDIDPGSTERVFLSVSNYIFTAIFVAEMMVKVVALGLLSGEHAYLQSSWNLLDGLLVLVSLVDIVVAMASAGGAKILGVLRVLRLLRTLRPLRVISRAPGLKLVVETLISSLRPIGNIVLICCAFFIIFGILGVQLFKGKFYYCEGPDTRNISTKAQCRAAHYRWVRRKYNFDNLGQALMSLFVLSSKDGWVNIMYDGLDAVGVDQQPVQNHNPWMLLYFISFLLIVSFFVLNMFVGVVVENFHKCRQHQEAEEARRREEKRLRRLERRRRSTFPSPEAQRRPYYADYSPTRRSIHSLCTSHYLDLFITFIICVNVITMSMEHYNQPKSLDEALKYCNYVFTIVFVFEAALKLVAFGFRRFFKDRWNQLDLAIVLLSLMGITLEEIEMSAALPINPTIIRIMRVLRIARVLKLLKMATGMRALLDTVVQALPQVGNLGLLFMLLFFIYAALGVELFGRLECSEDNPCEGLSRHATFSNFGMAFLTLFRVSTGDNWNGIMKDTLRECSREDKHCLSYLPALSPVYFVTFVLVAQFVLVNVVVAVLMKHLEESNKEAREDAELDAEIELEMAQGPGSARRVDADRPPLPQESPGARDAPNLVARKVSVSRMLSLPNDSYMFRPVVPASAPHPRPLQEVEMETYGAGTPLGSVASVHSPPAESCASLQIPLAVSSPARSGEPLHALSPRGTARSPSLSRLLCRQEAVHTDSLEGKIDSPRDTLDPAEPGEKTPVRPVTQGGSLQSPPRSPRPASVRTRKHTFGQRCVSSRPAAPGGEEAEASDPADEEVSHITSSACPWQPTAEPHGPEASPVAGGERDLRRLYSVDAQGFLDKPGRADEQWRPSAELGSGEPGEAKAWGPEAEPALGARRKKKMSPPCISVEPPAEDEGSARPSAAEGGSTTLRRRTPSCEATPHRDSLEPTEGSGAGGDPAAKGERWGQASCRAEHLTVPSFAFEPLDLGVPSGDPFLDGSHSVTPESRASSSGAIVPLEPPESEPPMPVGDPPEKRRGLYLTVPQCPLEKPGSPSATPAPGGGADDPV
- Type: functional
Active and inactive are the calls of the source.

As a guide, the following entries are already answered.
> print(dat)
                                   compound         obs.value
1  O=C(CSCC(=O)N1CCN(c2ccccc2)CC1)Nc1nc(-c2ccc(Cl)s2)cs1  4.28 µM (active)
2  CC(C)Oc1ccc(C(CC(=O)NCc2ccco2)c2ccccc2)cc1 (centres undefined)  4.77 µM (active)
3  Cc1nn(Cc2ccc(Cl)c(Cl)c2)c(C)c1NC(=O)c1cc(-c2ccco2)on1  1.35 µM (active)

Shift focus to the following entry.
Input: Consider the compound CC1Cc2ccccc2N1C(=O)c1cc2sccc2n1Cc1ccc(F)cc1 (centres undefined) and give its measured EC50.
Output: 5.86 µM (active)
